conditions: 293.15 K; 70100 kPa; Liquid; Frequency=1.5 MHz; Single path-length method
Form field: speed of sound (one value per entry).
Please respond with the number in m/s and leave the unit unwritten.

Molecule: O [water]
Readout Unit: m/s
speed of sound: 1599.1

Next molecule, please.
Input CCO [ethanol] , output reported speed of sound.
1486.8

---

conditions: 313.15 K; 90100 kPa; Liquid; Frequency=1.5 MHz; Single path-length method
Measurement Type: speed of sound (m/s)
Please respond with the number in m/s and leave the unit unwritten.

Example cases with answers are listed next.
Molecule: CCCCCC [hexane]
speed of sound / m/s: 1519.6

Molecule: CCCCCCC [heptane]
speed of sound / m/s: 1549.8

Molecule: CCCCCCCC [octane]
speed of sound / m/s: 1571.9

Input Cc1ccccc1 [toluene] , output reported speed of sound.
1607.4

Input CO [methanol] , output reported speed of sound.
1456.3

Input CCO [ethanol] , output reported speed of sound.
1510.1

Input CCCO [propan-1-ol] , output reported speed of sound.
1560.4

Input O [water] , output reported speed of sound.
1679.4

---

conditions: 303.15 K; 70100 kPa; Liquid; Frequency=1.5 MHz; Single path-length method
Form field: speed of sound (one value per entry).
Please respond with the number in m/s and leave the unit unwritten.

Example cases with answers are listed next.
Mol Smiles: CCCCCC
speed of sound / m/s: 1464.4
--
Mol Smiles: O
speed of sound / m/s: 1626.3
--
Mol Smiles: CO
speed of sound / m/s: 1409.7
--
Mol Smiles: CCO
speed of sound / m/s: 1462.7
--
Mol Smiles: Cc1ccccc1
speed of sound / m/s: 1572.1
--
Mol Smiles: CCCO
speed of sound / m/s: 1513.7
--
Mol Smiles: CCCCCCC
speed of sound / m/s: 1497.4

Next compound, please.
Input CCCCCCCC , output reported speed of sound.
1521.7

---

conditions: 313.15 K; 5100 kPa; Liquid; Frequency=1.5 MHz; Single path-length method
Measurement Type: speed of sound (m/s)
Please respond with the number in m/s and leave the unit unwritten.

Example cases with answers are listed next.
Mol Smiles: CO
Measurement Type: speed of sound
Observed Result: 1087
--
Mol Smiles: CCCCCCCC
Measurement Type: speed of sound
Observed Result: 1149
--
Mol Smiles: O
Measurement Type: speed of sound
Observed Result: 1537.6
--
Mol Smiles: CCCCCCC
Measurement Type: speed of sound
Observed Result: 1108.9

Input Cc1ccccc1 , output reported speed of sound.
1269

Input CCO , output reported speed of sound.
1127.7

Input CCCCCC , output reported speed of sound.
1055.9

Input CCCO , output reported speed of sound.
1186.7

---

Form field: speed of sound (one value per entry).
conditions: 303.15 K; 5100 kPa; Liquid; Frequency=1.5 MHz; Single path-length method
Please respond with the number in m/s and leave the unit unwritten.

Compound: CCCCCCC [heptane]
Readout Unit: m/s
speed of sound: 1148.8

Next compound, please.
Input O [water] , output reported speed of sound.
1517.5

---

Form field: speed of sound (one value per entry).
details: 303.15 K; 10100 kPa; Liquid; Frequency=1.5 MHz; Single path-length method
± gives the expanded uncertainty stated by the source.
Respond with a number, then the unit of measure.

Compound: CCCCCCC [heptane]
Measurement Type: speed of sound
Observed Result: 1184.1 ± 2.9 m/s
--
Compound: CCCO [propan-1-ol]
Measurement Type: speed of sound
Observed Result: 1248.2 ± 2.7 m/s
--
Compound: Cc1ccccc1 [toluene]
Measurement Type: speed of sound
Observed Result: 1334.3 ± 2.8 m/s
--
Compound: CCO [ethanol]
Measurement Type: speed of sound
Observed Result: 1189.8 ± 2.6 m/s
--
Compound: O [water]
Measurement Type: speed of sound
Observed Result: 1525.9 ± 3.1 m/s
--
Compound: CCCCCCCC [octane]
Measurement Type: speed of sound
Observed Result: 1221 ± 2.8 m/s
--
Compound: CCCCCC [hexane]
Measurement Type: speed of sound
Observed Result: 1135.8 ± 2.9 m/s

Next compound, please.
Input CO [methanol] , output reported speed of sound.
1146.4 ± 2.5 m/s
